Target: His-GST-TVMV-hRIPK1(1-324) (Homo sapiens)
Construct: The coding region of human RIPK1(1-324) flanked by NdeI site at 5′ end; made in house; host or cells: Spodoptera frugiperda (Sf9) insect cells, baculovirus
Sequence (Q13546 1-324): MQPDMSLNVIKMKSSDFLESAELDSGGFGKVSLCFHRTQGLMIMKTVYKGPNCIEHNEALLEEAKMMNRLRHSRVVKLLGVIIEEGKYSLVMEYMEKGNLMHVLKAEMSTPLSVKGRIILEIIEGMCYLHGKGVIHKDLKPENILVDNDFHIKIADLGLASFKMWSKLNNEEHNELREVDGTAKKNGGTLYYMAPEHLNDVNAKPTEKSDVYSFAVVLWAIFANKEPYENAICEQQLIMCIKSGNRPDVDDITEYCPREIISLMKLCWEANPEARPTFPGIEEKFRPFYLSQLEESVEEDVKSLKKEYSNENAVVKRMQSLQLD
Test: RIPK1 HTRF Binding Assay
Conditions: x marks IC50 class <20 nM; read-out: RIPK1 HTRF binding <20 nM
pIC50: −log10 of the molar value.
quantity: pIC50

COc1nc(C)c(-c2ccn3nc(N)nc3c2)cc1C(=O)NCc1cccnc1OCC1CCCC1 : > 7.70
Cc1cnc(-c2ccn3nc(N)nc3c2)cc1C(=O)NCC[C@@H](O)c1ccc(Cl)cc1 : > 7.70
Nc1nc2cc(-c3cncc(C(=O)NCc4ccccc4Sc4ccccc4CO)c3)ccn2n1 : > 7.70

Please examine the following record next.
Requested field: pIC50. Item: COc1ncc(-c2ccn3nc(N)nc3c2)cc1C(=O)NCc1c(F)cccc1OC1CCC(C)C1 (stereo not shown)
> 7.70
